Each entry below carries its reported growth.
test system: HT29 colon; test: NCI-60 one-dose screen, 48 h (100 = growth as untreated, 0 = no growth, -100 = all killed); conditions: 10 µM unless noted
The panel holds about 83,000 compounds, 20% with a hit somewhere; the sample as a whole holds those more often.
Give your result in % as a bare value.

Query string: Name the recorded growth of CC1=N[C@@H]2CN(C(=O)OC(C)(C)C)C[C@@H]2n2c1cc1ccccc1c2=O , assay system HT29 colon.
Result string: 106

Query string: Name the recorded growth of N#Cc1c(-c2cccs2)cc(-c2cnccn2)nc1SCC(=O)c1ccc(F)cc1 , assay system HT29 colon.
Result string: 105

Query string: Name the recorded growth of Cc1ccc2c(c1)C(=O)/C(=C/c1cccc(F)c1)S2 , assay system HT29 colon.
Result string: 104

Query string: Name the recorded growth of C=C1CC[C@@H]2[C@]3(C)COC(c4ccccc4)O[C@@H]3CC[C@@]2(C)[C@@H]1C/C=C1/C(=O)OC[C@H]1O (some centres undefined) , assay system HT29 colon.
Result string: 54.8

New cases:
Query string: Name the recorded growth of C=CCn1c(SCC(=O)Nc2ccc(C(=O)/C=C/c3ccc(C)cc3)cc2)nnc1-c1c[nH]c2ccccc12 , assay system HT29 colon.
Result string: 101

Query string: Name the recorded growth of CCN(CC)c1cn(-c2ccc(S(N)(=O)=O)cc2)nn1 , assay system HT29 colon.
Result string: 97.9

Query string: Name the recorded growth of CN1CCN(Cc2ccc(NC(=O)c3cncc(C#Cc4cnn5cccnc45)c3)cc2C(F)(F)F)CC1 , assay system HT29 colon.
Result string: 17.5

---

Each entry below carries its reported growth.
System: SN12C renal
Assay: NCI-60 one-dose screen, 48 h (100 = growth as untreated, 0 = no growth, -100 = all killed)
Settings: 10 µM unless noted
Method: Growth inhibition of the SN12C human tumor cell line is measured as a screen for anti-cancer activity. Cells are grown in 96 well plates and exposed to the test compound for 48 hours. Compounds are tested at a single concentration, which is 10^-5 M for most compounds. The reported endpoint is percent growth (GI% or GIPRCNT), where numbers from 0 - 100% represent growth inhibition, and numbers from -100% - 0 represent cell death. For example, a value of 40 represents 60% growth inhibition. […]
About 83,000 compounds went through this panel and 20% of them were active in at least one assay; those are over-represented in the sample as a whole.
Give your result in % as a bare value.

Before answering, review these 3 worked examples.
Query string: Write down growth measured for item COc1cc(-c2nn(C(C)(C)C)cc2-c2ccnc(NCCCNS(=O)(=O)c3cccc(F)c3)n2)ccc1Cl
Result string: 58.6

Query string: Write down growth measured for item CCn1c(SCC(=O)Nc2cccc(C(=O)/C=C/c3ccc(C)cc3)c2)nc2ccccc2c1=O
Result string: 88

Query string: Write down growth measured for item N#Cc1cccc(NC(=O)c2cc(-c3ccc(F)cc3F)ccc2O)c1
Result string: 4.45

New cases:
Query string: Write down growth measured for item CC[C@]12C=CCN3CC[C@@]4(c5cc(NC(=O)COc6cc(O)c7c(=O)cc(-c8ccccc8)oc7c6)c(OC)cc5N(C)[C@H]4[C@@](O)(C(=O)OC)[C@@H]1OC(C)=O)[C@@H]32
Result string: -75.4

Query string: Write down growth measured for item CCCCCc1ccc(S(=O)(=O)Nc2cccc(-c3csc(NC(=O)CN4CCN(C)CC4)n3)c2)cc1
Result string: 90.6

Query string: Write down growth measured for item COc1cc(-c2ccc3ncnc(NCc4ccccc4)c3c2)cnc1OC
Result string: 27.2

Query string: Write down growth measured for item COc1ccc(COc2ccc(/C=C3\C(=O)Nc4ccccc43)cc2OC)cc1
Result string: 99.6

Query string: Write down growth measured for item CCc1cccc(NC(=O)CNc2cc(S(=O)(=O)N(C)C)cc(C)c2C)c1
Result string: 69.4
